Reported values of AC50 for individual entries
# Target desc: UniProt O75030
# Sequence (O75030 whole entry): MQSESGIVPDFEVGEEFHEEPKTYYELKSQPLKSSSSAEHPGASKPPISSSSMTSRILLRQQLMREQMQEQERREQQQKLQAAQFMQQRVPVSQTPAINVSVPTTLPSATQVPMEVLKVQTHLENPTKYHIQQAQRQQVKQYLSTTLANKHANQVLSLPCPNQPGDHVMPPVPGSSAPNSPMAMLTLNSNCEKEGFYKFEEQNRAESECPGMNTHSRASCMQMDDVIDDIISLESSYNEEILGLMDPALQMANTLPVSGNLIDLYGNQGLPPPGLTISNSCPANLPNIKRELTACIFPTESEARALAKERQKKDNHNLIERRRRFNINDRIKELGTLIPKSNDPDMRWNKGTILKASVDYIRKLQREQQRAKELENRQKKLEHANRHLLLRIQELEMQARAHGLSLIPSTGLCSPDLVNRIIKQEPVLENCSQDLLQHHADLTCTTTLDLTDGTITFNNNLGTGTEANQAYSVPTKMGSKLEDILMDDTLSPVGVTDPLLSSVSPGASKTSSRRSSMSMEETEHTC
# Method description: TRPM1 promoter luciferase signal decrease, dose response, MITF inhibitor project, cell-based, SK-MEL-5, cherry-picked, set 3 (AID 493073)
# Assay type: functional
Activity calls are given as the source filed them. The rule behind the calls is not given here.

Please review the entries below; each comes with its answer.
CC1CC(C)CN(C2=CC(=[N+]3CCCC3)CC(C)(C)C2)C1 (configuration not stated) ... 2.24 µM (active)
CC[n+]1c(/C=C/N(C)c2ccccc2)sc2ccc(Cl)cc21 ... 9.07 µM (active)
O=C(N/N=C/c1ccccc1Cl)c1[nH]nc2c1CCCC2 ... 7.97 µM (active)
CC(=O)Nc1ccc(NC(=O)c2nc(S(=O)(=O)Cc3ccccc3)ncc2Cl)cc1 ... 12.8 µM (active)
O=C(NCc1cccs1)c1nc2c(nnn2Cc2ccccc2Cl)c(=O)[nH]1 ... 6.66 µM (active)

Under UniProt O75030: AC50 value of O=C(CCl)N1N=C(c2ccco2)CC1c1cccs1 (configuration not stated) ?
7.84 µM (active)

Under UniProt O75030: AC50 value of "Cc1ccc(C(=O)Cn2cc(-c3ccc(C)cc3)[n+]3c2CCCCC3)cc1" ?
3.63 µM (active)
